Ref: patent US20260265403A1

Measured koff values are reported for all entries that follow.
- system: T1, Human CD24 (human, UniProt P25063 27-59, limits assumed)
- T1 chain (looked up): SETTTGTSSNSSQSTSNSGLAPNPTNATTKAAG
- test-name: SPR affinity ranking, 1:1 binding, analyte conc. 19.71 nM
Report the figure in s⁻¹ without appending any unit label.

Antibody No 8, lead clone of 4451H (HC T59Y; LC K27A, T97I) (antibody, V domains shown) VH: QVQLVQSGAEVKKPGASVKVSCKASGYDFTGYHMNWVRQAPGQGLEWMGEINPITSDKYFNQKFKSRVTMTRDTSISTAYMELSRLRSDDTAVYYCARRDYGTSLDYWGQGTTVTVSS VL: DIQLTQSPSFLSASVGDRVTITCRASASISKYLAWYQQKPGKAPKLLIYAGSTLHSGIPSRFRGSGSGTEFTLTISSLQPEDFATYYCQQHNEYPIIFGQGTKLEIK: 0.0196
Antibody No 14, lead clone of 4451H (HC T59Y; LC T97I) (antibody, V domains shown) VH: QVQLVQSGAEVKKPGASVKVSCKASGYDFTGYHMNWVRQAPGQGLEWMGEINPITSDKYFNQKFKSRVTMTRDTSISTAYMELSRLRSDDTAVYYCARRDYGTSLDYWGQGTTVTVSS VL: DIQLTQSPSFLSASVGDRVTITCRASKSISKYLAWYQQKPGKAPKLLIYAGSTLHSGIPSRFRGSGSGTEFTLTISSLQPEDFATYYCQQHNEYPIIFGQGTKLEIK: 0.0604
Antibody No 12, lead clone of 4451H (HC T59Y; LC S30K) (antibody, V domains shown) VH: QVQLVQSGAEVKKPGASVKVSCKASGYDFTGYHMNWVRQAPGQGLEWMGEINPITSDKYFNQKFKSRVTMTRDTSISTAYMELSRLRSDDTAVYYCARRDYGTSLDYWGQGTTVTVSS VL: DIQLTQSPSFLSASVGDRVTITCRASKSIKKYLAWYQQKPGKAPKLLIYAGSTLHSGIPSRFRGSGSGTEFTLTISSLQPEDFATYYCQQHNEYPITFGQGTKLEIK: 0.168
Antibody No 16, lead clone of 4451H (HC N35G, T59Y; LC S30K) (antibody, V domains shown) VH: QVQLVQSGAEVKKPGASVKVSCKASGYDFTGYHMGWVRQAPGQGLEWMGEINPITSDKYFNQKFKSRVTMTRDTSISTAYMELSRLRSDDTAVYYCARRDYGTSLDYWGQGTTVTVSS VL: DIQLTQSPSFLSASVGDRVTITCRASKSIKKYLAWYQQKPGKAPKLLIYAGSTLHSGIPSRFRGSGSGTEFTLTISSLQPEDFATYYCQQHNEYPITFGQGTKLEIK: 0.016

// moving on: another record for koff
Ask: Can you look up the measured koff of Antibody No 10, lead clone of 4451H (HC T59Y; LC L33G, T97I) (antibody, V domains shown) VH: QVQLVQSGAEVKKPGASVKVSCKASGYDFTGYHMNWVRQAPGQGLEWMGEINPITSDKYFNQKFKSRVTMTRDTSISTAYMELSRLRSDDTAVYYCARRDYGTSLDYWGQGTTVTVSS VL: DIQLTQSPSFLSASVGDRVTITCRASKSISKYGAWYQQKPGKAPKLLIYAGSTLHSGIPSRFRGSGSGTEFTLTISSLQPEDFATYYCQQHNEYPIIFGQGTKLEIK for me?
Result: 0.0175
